This collection of values is drawn from the supplement of paper PMC9233669.

- Tested on: biotinyl-Leu-oxazolone
- procedure text: self-aminoacylation, catalytic enhancement (BLO) (fold over background); higher = more active; k-Seq, kA / k0A0; sequences stand for … in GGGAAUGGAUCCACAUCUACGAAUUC…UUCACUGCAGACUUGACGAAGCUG
This sample holds only a part of the variants without activity.
Listed below: self-aminoacylation values for each entry.
Note: the reply should be a number with no unit written.

Entry under review: AUGCUUGCUAAUAGUCGCAAG [Fam3.1 aminoacylation ribozyme variant] . Reported self-aminoacylation?
1.33

Fill in: self-aminoacylation of UCACACUUCAAGCACUCGGUC [Fam1B.1 aminoacylation ribozyme variant] is ___
0.927

Quick check: self-aminoacylation of AAUUUUGCUAUUAGUCGCAAG [Fam3.1 aminoacylation ribozyme variant] ?
1.89

Given the entry AUUACCUUGGUCACCGAGUGA [Fam2.1 aminoacylation ribozyme variant] , report its measured self-aminoacylation.
6.74

Look up self-aminoacylation for this sequence: ACUCACCUAUGUCAUCGGGUG [Fam2.2 aminoacylation ribozyme variant]
6.52

# input sequence: AUUUUCCUGGUCAUCGAGUGA [Fam2.1 aminoacylation ribozyme variant] ; wanted: its self-aminoacylation
8.6

Record request: self-aminoacylation value, item CUACUCCAAACAAACGGUCUG [Fam1A.1 aminoacylation ribozyme variant]
0.71

Can you share its self-aminoacylation? I mean this sequence: CCACACUUCAAUCAAUCGGUC [Fam1B.1 aminoacylation ribozyme variant]
1.51

So what does the record say about self-aminoacylation for AUUACCCUCGCCAUCGAGUGA [Fam2.1 aminoacylation ribozyme variant] ?
7.31

----------
- Tested on: biotinyl-Leu-oxazolone
- procedure text: self-aminoacylation, catalytic enhancement (BLO) (fold over background); higher = more active; k-Seq, kA / k0A0; sequences stand for … in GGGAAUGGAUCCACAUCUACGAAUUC…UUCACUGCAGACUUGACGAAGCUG
This sample holds only a part of the variants without activity.
Think of 3 as a floor: if self-aminoacylation stands on it or above, it is Yes; beneath it, No.

Please review the entries below; each comes with its answer.
sequence string	category
AAGUUUGCUGAUAGUCCCAAG [Fam3.1 aminoacylation ribozyme variant]	No
AUAACCCUGGUUAUCGAGUGA [Fam2.1 aminoacylation ribozyme variant]	Yes
AAGUUUGCUUAUAGUCUCAAG [Fam3.1 aminoacylation ribozyme variant]	No
ACGUUUGCUAAUUGUCGCAAG [Fam3.1 aminoacylation ribozyme variant]	No

Test whether the sequence AUUCCCCUAGGUCAUCGCGUG [Fam2.2 aminoacylation ribozyme variant] records self-aminoacylation of 3 or higher.
Yes

# bool: self-aminoacylation of AAGUCUGCUAAUAGUCGCAGG [Fam3.1 aminoacylation ribozyme variant] >= 3
No

I'd appreciate it if you could say whether CCACACUUCAAGCAGUCGGUG [Fam1B.1 aminoacylation ribozyme variant] has self-aminoacylation at least equal to 3.
Yes

Entry AAGUUUGCUACUAGUCGUAAG [Fam3.1 aminoacylation ribozyme variant] : is its self-aminoacylation no less than 3?
No

Please tell me: is the sequence AUCCACCUAGCUCAUCGGGUG [Fam2.2 aminoacylation ribozyme variant] at or over 3 in terms of self-aminoacylation?
No

hey, is self-aminoacylation for this one >= 3? AUUACCCAGGUCAUCGAGUUA [Fam2.1 aminoacylation ribozyme variant]
No

Say whether AAGUUUGCCAAUAGUUGCAAG [Fam3.1 aminoacylation ribozyme variant] shows self-aminoacylation of 3 or more.
No

----------
- System: biotinyl-Ile-oxazolone
- procedure text: self-aminoacylation, catalytic enhancement (BIO) (fold over background); higher = more active; k-Seq, kA / k0A0; sequences stand for … in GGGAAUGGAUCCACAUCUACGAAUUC…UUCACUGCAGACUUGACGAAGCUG
Fewer inactive variants are shown than the library holds.
Listing of recorded self-aminoacylation by entry.
Note: the reply should be a number with no unit written.

Before answering, review these 3 worked examples.
sequence string	self-aminoacylation
AUUCACCUAGAUCAUCCGGUG [Fam2.2 aminoacylation ribozyme variant]	3.4
CCACACUUGAAGCAAUCGAUC [Fam1B.1 aminoacylation ribozyme variant]	0.482
CCAUACUUCAAGCAAUCGGUC [Fam1B.1 aminoacylation ribozyme variant]	1.07

Give the reported self-aminoacylation for AAGAUUGCCAAUAGUCGCAAG [Fam3.1 aminoacylation ribozyme variant] (system: biotinyl-Ile-oxazolone).
1.51

----------
- Test system: biotinyl-Val-oxazolone
- procedure text: self-aminoacylation, catalytic enhancement (BVO) (fold over background); higher = more active; k-Seq, kA / k0A0; sequences stand for … in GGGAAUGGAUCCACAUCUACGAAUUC…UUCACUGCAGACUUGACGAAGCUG
This sample holds only a part of the variants without activity.
Field: class. Source value: self-aminoacylation. Ranges: group 1: < 1; group 2: ≥ 1 and < 4; group 3: ≥ 4

sequence string	study target	category
CCCCGCUUCAAGCAAUCGGUC [Fam1B.1 aminoacylation ribozyme variant]	biotinyl-Val-oxazolone	group 2
AUUACCUUGGUCAUCGCGUGA [Fam2.1 aminoacylation ribozyme variant]	biotinyl-Val-oxazolone	group 3
CUACUUCAAACAAUCGGCUUG [Fam1A.1 aminoacylation ribozyme variant]	biotinyl-Val-oxazolone	group 2
CCACAAUUCGAGCAAUCGGUC [Fam1B.1 aminoacylation ribozyme variant]	biotinyl-Val-oxazolone	group 2

Field: class (self-aminoacylation) — entry: AUUACCCCAGUCAUCGAGUGA [Fam2.1 aminoacylation ribozyme variant]
group 2

Form: Item = CCACACUUCUUGCAAUCGGUC [Fam1B.1 aminoacylation ribozyme variant] ; Class = ?
group 1

Category of AUUCACCGAGGUCAUCGGGUC [Fam2.2 aminoacylation ribozyme variant] :
group 2

Could you tell me which band AUUACACUGGUCAUCGAGCGA [Fam2.1 aminoacylation ribozyme variant] belongs to?
group 2

----------
Below, each of the sequences is paired with its reported self-aminoacylation value.
- System: biotinyl-Met-oxazolone
- procedure text: self-aminoacylation, catalytic enhancement (BMO) (fold over background); higher = more active; k-Seq, kA / k0A0; sequences stand for … in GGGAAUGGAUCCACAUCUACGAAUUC…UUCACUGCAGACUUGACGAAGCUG
Fewer inactive variants are shown than the library holds.

Consider the worked cases shown below.
sequence string	study target	result
ACUCACCUAGGUCAUCCGGUG [Fam2.2 aminoacylation ribozyme variant]	biotinyl-Met-oxazolone	6.22
ACUCACCUAGGUCAUCGAGUG [Fam2.2 aminoacylation ribozyme variant]	biotinyl-Met-oxazolone	3.27
AUGCUUGCUAAUAGUCGCAAG [Fam3.1 aminoacylation ribozyme variant]	biotinyl-Met-oxazolone	1.61
AAGUUUAGUAAUAGUCGCAAG [Fam3.1 aminoacylation ribozyme variant]	biotinyl-Met-oxazolone	1.75
AUACACCUAGAUCAUCGGGUG [Fam2.2 aminoacylation ribozyme variant]	biotinyl-Met-oxazolone	3
AUUACCCUGGGCGUCGAGUGA [Fam2.1 aminoacylation ribozyme variant]	biotinyl-Met-oxazolone	1.73
AAAUUUGCUAAUAGUCACAAG [Fam3.1 aminoacylation ribozyme variant]	biotinyl-Met-oxazolone	1.62
AUACACCUAGGUCAUCUGGUG [Fam2.2 aminoacylation ribozyme variant]	biotinyl-Met-oxazolone	1.56

Continue with the next sequence.
Could you tell me which self-aminoacylation is on file for CUACACUUCAGGCAAUCGGUC [Fam1B.1 aminoacylation ribozyme variant] ?
1.01

----------
- Test system: biotinyl-Trp-oxazolone
- procedure text: self-aminoacylation, catalytic enhancement (BWO) (fold over background); higher = more active; k-Seq, kA / k0A0; sequences stand for … in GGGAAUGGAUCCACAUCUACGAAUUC…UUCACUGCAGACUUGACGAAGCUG
Variants at the floor of the assay were thinned out.
Reported self-aminoacylation is given for each of the following sequences.
Give a plain numeric answer without units written out.

Fill blank: measured self-aminoacylation of the sequence AUUCACCUAGGUCCUCGGGUU [Fam2.2 aminoacylation ribozyme variant] is ____.
2.48

----------
self-aminoacylation listing for selected sequences.
- Test system: biotinyl-Phe-oxazolone
- procedure text: self-aminoacylation, catalytic enhancement (BFO) (fold over background); higher = more active; k-Seq, kA / k0A0; sequences stand for … in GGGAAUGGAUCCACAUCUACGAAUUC…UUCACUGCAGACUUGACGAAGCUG
Variants at the floor of the assay were thinned out.
Just the number, please, no unit after it.

sequence string	quantitative result
CUACUACAAACUAUCGGUCUG [Fam1A.1 aminoacylation ribozyme variant]	0.752
AUUCACCUAGGUCAUUGGGAG [Fam2.2 aminoacylation ribozyme variant]	0.946
AUUACCCUGGUAAUCGUGUGA [Fam2.1 aminoacylation ribozyme variant]	22.2
AUUACCCGGGUCGUCGAGUGA [Fam2.1 aminoacylation ribozyme variant]	3.86

We next turn to a different sequence, shown below.
Consider the sequence AGUAGCCUGGUCAUCGAGUGA [Fam2.1 aminoacylation ribozyme variant] and give its measured self-aminoacylation.
37.9

----------
- System: biotinyl-Trp-oxazolone
- procedure text: self-aminoacylation, catalytic enhancement (BWO) (fold over background); higher = more active; k-Seq, kA / k0A0; sequences stand for … in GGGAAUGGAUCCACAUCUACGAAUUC…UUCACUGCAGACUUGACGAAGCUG
This sample holds only a part of the variants without activity.
measured metric: self-aminoacylation
When you answer, write just the number.

sequence string	study target	quantitative result
AUUACCCUGCUCAUCGAGUGU [Fam2.1 aminoacylation ribozyme variant]	biotinyl-Trp-oxazolone	1.36
AUUACCCUGGUCAUCGAGGGC [Fam2.1 aminoacylation ribozyme variant]	biotinyl-Trp-oxazolone	1.12
CGACUUCAAACAAGCGGUCUG [Fam1A.1 aminoacylation ribozyme variant]	biotinyl-Trp-oxazolone	1.45
CUGCUUCAAACAAGCGGUCUG [Fam1A.1 aminoacylation ribozyme variant]	biotinyl-Trp-oxazolone	0.576
AAUUUUGCUAAUCGUCGCAAG [Fam3.1 aminoacylation ribozyme variant]	biotinyl-Trp-oxazolone	1.62
CUACUUCAAACAUUCGGUAUG [Fam1A.1 aminoacylation ribozyme variant]	biotinyl-Trp-oxazolone	0.924
AAGUUUGCUAAUAGUCCCAAU [Fam3.1 aminoacylation ribozyme variant]	biotinyl-Trp-oxazolone	1.28
AUUCACCUCGGUCGUCGGGUG [Fam2.2 aminoacylation ribozyme variant]	biotinyl-Trp-oxazolone	2.53

// switching to the query sequence
Return reported self-aminoacylation; argument: AGUCACCUAGGUCUUCGGGUG [Fam2.2 aminoacylation ribozyme variant]
8.99
